molecular target: human ether-à-go-go-related gene (hERG) potassium channel (human, UniProt Q12809); assay: primary screen, population patch clamp on CHO cells stably expressing hERG; higher = less effect of the substance;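 note: peak tail current of the secondary pulse compared with the same well before compound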
Sequence (Q12809 whole entry, looked up): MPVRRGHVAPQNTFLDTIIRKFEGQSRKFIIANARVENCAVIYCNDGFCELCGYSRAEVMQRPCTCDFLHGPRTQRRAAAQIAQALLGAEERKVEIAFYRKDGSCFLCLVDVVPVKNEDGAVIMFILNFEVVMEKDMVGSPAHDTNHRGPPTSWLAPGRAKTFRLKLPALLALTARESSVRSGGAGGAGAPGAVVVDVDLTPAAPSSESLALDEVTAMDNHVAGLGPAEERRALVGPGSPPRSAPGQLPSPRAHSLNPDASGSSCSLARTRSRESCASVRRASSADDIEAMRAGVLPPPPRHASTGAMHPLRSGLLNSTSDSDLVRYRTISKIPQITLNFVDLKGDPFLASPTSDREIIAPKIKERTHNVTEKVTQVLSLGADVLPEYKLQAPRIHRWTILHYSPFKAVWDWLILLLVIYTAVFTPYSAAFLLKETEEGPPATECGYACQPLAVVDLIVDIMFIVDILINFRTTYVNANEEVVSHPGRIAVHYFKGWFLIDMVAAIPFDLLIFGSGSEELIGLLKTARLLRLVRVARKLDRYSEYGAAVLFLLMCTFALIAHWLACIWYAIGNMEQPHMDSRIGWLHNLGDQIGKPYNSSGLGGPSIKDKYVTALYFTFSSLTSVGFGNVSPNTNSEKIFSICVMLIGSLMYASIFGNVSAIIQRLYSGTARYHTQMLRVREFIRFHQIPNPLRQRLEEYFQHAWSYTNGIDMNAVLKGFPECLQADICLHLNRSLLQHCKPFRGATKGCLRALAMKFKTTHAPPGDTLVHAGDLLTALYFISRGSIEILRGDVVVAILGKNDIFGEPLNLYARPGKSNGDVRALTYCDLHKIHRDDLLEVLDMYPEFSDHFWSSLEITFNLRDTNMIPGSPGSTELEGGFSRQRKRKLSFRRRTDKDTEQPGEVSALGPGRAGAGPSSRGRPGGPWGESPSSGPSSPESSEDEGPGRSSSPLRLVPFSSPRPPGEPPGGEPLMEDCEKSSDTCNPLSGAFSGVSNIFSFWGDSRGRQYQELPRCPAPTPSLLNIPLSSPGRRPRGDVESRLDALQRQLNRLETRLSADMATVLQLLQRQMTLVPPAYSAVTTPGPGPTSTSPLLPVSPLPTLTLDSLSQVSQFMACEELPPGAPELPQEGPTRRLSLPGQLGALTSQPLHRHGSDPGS
The whole screen tested about 310,000 compounds, of which about 14,000 (4.5%) showed an effect of 50% or more. Effects have a minus sign here. Only a selection was taken, and strong results are over-represented in it overall.
measured-parameter: hERG current change (%, negative = inhibition) at 10uM (%)

> print(dat)
                                    compound                            assayed.system  observed.measurement
 1  COc1ccc(C2=CC(c3ccc(Cl)cc3)n3cnnc3N2)cc1OC (stereo not shown)  human ether-à-go-go-related gene (hERG) potassium channel (human, UniProt Q12809)                   -52
 2  Fc1ccc(-n2cc(CNCCc3ccncc3)c(-c3ccccc3Cl)n2)cc1  human ether-à-go-go-related gene (hERG) potassium channel (human, UniProt Q12809)                 -75.2
 3      C=CCc1cccc(/C=N/NC(=O)c2ccccc2Br)c1O  human ether-à-go-go-related gene (hERG) potassium channel (human, UniProt Q12809)                 -50.2
 4   Cc1[nH]c2ccccc2c1/C=N/NC(=O)c1ccc(N)cc1  human ether-à-go-go-related gene (hERG) potassium channel (human, UniProt Q12809)                  11.2
 5  COc1ccc2c(c1)c(=O)c(C(=O)c1ccccc1)cn2Cc1ccccc1  human ether-à-go-go-related gene (hERG) potassium channel (human, UniProt Q12809)                 -71.8
 6  Fc1ccc(-n2cc(CNCCc3cccnc3)c(-c3ccccc3Cl)n2)cc1  human ether-à-go-go-related gene (hERG) potassium channel (human, UniProt Q12809)                 -51.9
 7  CC1=C(C(=O)OCCc2ccccc2)C(c2ccsc2)NC(=O)N1C (stereo not shown)  human ether-à-go-go-related gene (hERG) potassium channel (human, UniProt Q12809)                 -10.9
 8                C=CCNC(=O)CCCOc1cc(C)ccc1C  human ether-à-go-go-related gene (hERG) potassium channel (human, UniProt Q12809)                 -9.84
 9  Cc1nc2nc(C)c(CCC(=O)NCCC3=CCCCC3)c(C)n2n1  human ether-à-go-go-related gene (hERG) potassium channel (human, UniProt Q12809)                  4.49
10  COc1ccc(C2C=C(c3ccc(Cl)cc3)Nc3nc(NC(C)=O)nn32)cc1 (stereo not shown)  human ether-à-go-go-related gene (hERG) potassium channel (human, UniProt Q12809)                 -39.7

###

# reported hERG current change (%, negative = inhibition) at 10uM; entries follow
target: human ether-à-go-go-related gene (hERG) potassium channel (human); test: primary screen, population patch clamp on CHO cells stably expressing hERG; higher = less effect of the substance;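 note: peak tail current of the secondary pulse compared with the same well before compound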
Out of some 310,000 compounds screened, about 14,000 (4.5%) showed an effect of 50% or more. Effects have a minus sign here. Many of the other results were omitted from the sample, so strong results are more common in it than they were.
measured-parameter: hERG current change (%, negative = inhibition) at 10uM (%)

> print(dat)
                                   molecule  value.unit  observed.measurement
1  Cc1ccc(S(=O)(=O)N2CCN(C(=O)c3c(-c4ccccc4)noc3C)CC2)cc1C           %                  1.83
2  O=C(N/N=C/c1ccc(OC(=O)c2cccc(Br)c2)cc1)c1cccnc1           %                  11.4
3  O=C(N/N=C(\c1ccccc1)c1cccnc1)c1cc(O)ccc1O           %                  16.4
4  COc1cccc(NC(=S)C(C#N)=C2N(C)c3ccccc3N2C)c1           %                  4.88
5            O=C(N/N=C/c1cccnc1)c1cccc(F)c1           %                  2.67
6  O=C(CSC1CS(=O)(=O)c2cc([N+](=O)[O-])ccc21)NNC(=O)c1ccc(Cl)cc1 (stereo not drawn)           %                   -74
7  O=c1[nH]c(=O)n(Cc2ccco2)c(O)c1C=NCc1ccco1           %                  3.46
8  COc1cc(NC(=O)NCC2CCN(Cc3ccccc3C)CC2)cc(OC)c1OC           %                 -2.71
9  O=C(N/N=C(\c1ccccc1)c1cccnc1)c1cccc(F)c1           %                 -61.5

Where these numbers come from: paper PMC4336329
